MEASUREMENT NOTES: Inhibition of bovine trypsin using BANA as substrate after 15 to 30 mins
Design: species or system Bos taurus
Each record here notes measured pKi.
# reply with the number alone; pKi is -log10 of concentration in mol/L

record_smiles=N=C(N)c1ccc(OCc2c(Cl)c(Cl)c(COc3ccc(C(=N)N)cc3)c(Cl)c2Cl)cc1 val=5.92
record_smiles=Cl.N=C(N)c1ccc(OCc2c(Cl)c(Cl)c(Cl)c(COc3ccc(C(=N)N)cc3)c2Cl)cc1 val=5.89
record_smiles=Cl.N=C(N)c1ccc(OCc2ccc(COc3ccc(C(=N)N)cc3Br)cc2)c(Br)c1 val=5.96
record_smiles=N=C(N)c1ccc(COc2ccc3cc(OCc4ccc(C(=N)N)cc4)ccc3c2)cc1 val=5.49
record_smiles=Cl.N=C(N)c1ccc(OCc2ccc(COc3ccc(C(=N)N)cc3I)cc2)c(I)c1 val=5.64

Problem: Would you kindly share the measured pKi for `Cl.N=C(N)c1cccc(OCc2cccc(COc3cccc(C(=N)N)c3)c2)c1` ?
Result: 5.49

Problem: Would you kindly share the measured pKi for `Cl.N=C(N)c1ccc(OCc2ccc(COc3ccc(C(=N)N)cc3)cc2)cc1` ?
Result: 5.89

----------
Each record here notes measured inhibition.
Species on record: Cavia porcellus
MEASUREMENT NOTES: Inhibition of guinea pig complement-mediated immune lysis of sheep red blood cells at 30 uM after 12 mins

Answered examples (2):
record_smiles=CC[n+]1c(-c2ccccc2)c2cc(NN=Nc3cccc(C(=N)N)c3)ccc2c2ccc(NN=Nc3cccc(C(=N)N)c3)cc21 val="> 50%"
record_smiles=N=C(N)c1ccc(OCc2c(Cl)c(Cl)c(COc3ccc(C(=N)N)cc3)c(Cl)c2Cl)cc1 val="> 50%"

Problem: Would you kindly share the measured inhibition for `Cl.N=C(N)c1cccc(COc2ccc3cc(OCc4cccc(C(=N)N)c4)ccc3c2)c1` ?
Result: > 50%
